Can you tell me Tm for the items I'm about to list?
Test: melting temperature; fluorescence melt of hairpins on a sequencing array, two-state fit, raised by 9.35 °C to match UV melts
Settings: sodium 0.088 M
Numbers only, in °C.

GATCAGCAAACTGATC ((((((....)))))) :: 48.2
GCGTGAGGAAACTCACAC (.(((((....))))).) :: 42.3
GATCTTCACGAAGATC ((((((....)))))) :: 49.2

Please give Tm for each item listed below.
1. GGGTTGCCGAAAGGCCCC (((..(((....))))))
2. GCCGAGCGAAAGCTGAGC ((..(((....)))..))

1. 48.4
2. 51.2

Please give Tm for each item listed below.
1. GCTAATCGAAAGATCAGC (((.(((....))).)))
2. GGCTGGGGAAACCCAGTC (.(((((....))))).)
3. AGAACCAGAAATGGTTCT (((((((....)))))))
4. GATCTCCCGCGAGATC ((((((....))))))

[41.2, 55.8, 55.2, 52.7]

Please give Tm for each item listed below.
1. GTTGCTGGAAACGGCAAC (((((.(....).)))))
2. GATCCAGGAATGGATC ((((((....))))))
3. GATCCGGGAAACCGGACC (.(((((....))))).)

55.2
54
44.1
